assay system: T1, OTR (Homo sapiens, UniProt P30559)
T1 chain: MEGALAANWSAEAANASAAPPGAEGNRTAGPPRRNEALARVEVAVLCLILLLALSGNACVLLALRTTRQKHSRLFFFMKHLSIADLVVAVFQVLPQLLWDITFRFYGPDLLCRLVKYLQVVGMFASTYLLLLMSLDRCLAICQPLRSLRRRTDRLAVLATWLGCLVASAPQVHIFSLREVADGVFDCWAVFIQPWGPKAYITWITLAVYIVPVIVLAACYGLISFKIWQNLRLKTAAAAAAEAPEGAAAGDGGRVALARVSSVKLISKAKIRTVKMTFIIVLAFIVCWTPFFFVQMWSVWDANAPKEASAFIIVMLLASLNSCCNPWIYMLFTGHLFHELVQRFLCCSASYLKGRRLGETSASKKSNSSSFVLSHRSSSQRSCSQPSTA
test details: radioligand displacement
Bridge positions count the residues as written; N and C are the ends. Square brackets hold non-standard residues; d marks the D form. Ends that are not written are not given here.
quantity kind: Ki

Recorded result, CLITNCP[dR]G-NH2 (disulfide 1-6 (inferred)) [[D-Arg8]-inotocin] , Ki: > 4 µM
